# Target under test: human α4β2 (Homo sapiens, UniProt P17787+P43681)
# Construct: host or cells: SH-EP1
# Assay remarks: Competition binding to human α4β2 nicotinic receptors in membrane preparations ([3H]-nicotine)
# Test parameters: [3H]-nicotine competition, membranes; read-out: Human α4β2 Ki
Measured parameter: Ki (µM)
Write it as a number; the unit µM goes unstated.

• CNC1(C)C2CCC(CC2)C12CCCC2 (stereo not drawn) = 0.3
• C1CCN(C2C3CCC(C3)C23CCC3)C1 (stereo not drawn) = 3.8
• CN(C)C1C2(CCC2)[C@@H]2CC[C@@]1(C)C2(C)C (stereo partly drawn) [drawing 37] = 3.2
• CN(C)C1C2CCC(C2)C12CCC2 (stereo not drawn) = 2.6

Data request: What Ki value was documented for this molecule, CNC1C2(CCC2)[C@H]2CC[C@]1(C)C2(C)C (stereo partly drawn) [drawing 32] ?
Data returned: 5.6

###

# Target under test: human α4β2 (Homo sapiens, UniProt P17787+P43681)
# Construct: host or cells: SH-EP1
# Assay remarks: Calcium flux functional assay, inhibition of nicotine response in SH-EP1-human α4β2 cells
# Assay type: cell-based
# Test parameters: Human α4β2 Ca Flux IC50 [37C/LS], 37C/LS, nicotine 1 μM
Measured parameter: IC50
Could you write the number and then its unit?

Data request: Data request, read-out IC50, for C1CCN(C2C3CCC(C3)C23CCC3)C1 (stereo not shown)
Data returned: 59 nM

###

Item-by-item account of Ki
# Target under test: human α4β2 (Homo sapiens, UniProt P17787+P43681)
# Construct: host or cells: SH-EP1
# Assay remarks: Competition binding to human α4β2 nicotinic receptors in membrane preparations ([3H]-nicotine)
# Test parameters: [3H]-nicotine competition, membranes; read-out: Human α4β2 Ki

// worked examples, Ki included
- CN[C@@]1(C)[C@@H]2CC[C@@H](C2)C12CCC2 (racemic): 8.7 µM
- CN(C)C1C2(CCC2)[C@@H]2CC[C@@]1(C)C2(C)C (stereo partly shown) [drawing 38]: 2.6 µM
- CNC1(C)C2CCC(C2)C12CCCC2 (stereo not shown): > 10 µM
- CN[C@@]1(C)[C@@H]2CC[C@@H](C2)C12CCC2 (single isomer, unassigned) [drawing 30]: > 10 µM
- CNC1(C)C2CCC(C2)C12CC2 (stereo not shown): > 10 µM
- CNC1C2(CCC2)[C@@H]2CC[C@@]1(C)C2(C)C (stereo partly shown) [drawing 33]: > 10 µM

Here is the next item to consider.
Data request: Given the entry CN[C@@]1(C)[C@@H]2CC[C@@H](C2)C12CCC2 (single isomer, unassigned) [drawing 29] , report its measured Ki.
Data returned: > 10 µM

###

# Target under test: human α4β2 (Homo sapiens, UniProt P17787+P43681)
# Construct: host or cells: SH-EP1
# Assay remarks: Calcium flux functional assay, inhibition of nicotine response in SH-EP1-human α4β2 cells
# Format: cell-based
# Test parameters: 37C/LS, nicotine 1 μM
This listing pairs compounds with measured Human α4β2 Ca Flux Imax [37C/LS].
Enter your answer as a number in % inh; do not include the unit.

• CNC1C2(CCC2)[C@@H]2CC[C@@]1(C)C2(C)C (stereo partly drawn) [drawing 34] = 93
• CN(C)C1C2(CCC2)[C@@H]2CC[C@@]1(C)C2(C)C (stereo partly drawn) [drawing 38] = 95
• CNC1C2(CCC2)[C@H]2CC[C@]1(C)C2(C)C (stereo partly drawn) [drawing 32] = 96
• CN[C@@]1(C)[C@@H]2CC[C@@H](C2)C12CCC2 (single isomer, unassigned) [drawing 30] = 94
• CN(C)C1C2(CCC2)[C@H]2CC[C@]1(C)C2(C)C (stereo partly drawn) [drawing 36] = 95

For the next question, use this compound.
Data request: Look at this compound and give its reported Human α4β2 Ca Flux Imax [37C/LS]. CN[C@@]1(C)[C@@H]2CC[C@@H](C2)C12CCC2 (single isomer, unassigned) [drawing 29]
Data returned: 96

###

# Target under test: human α4β2 (Homo sapiens, UniProt P17787+P43681)
# Construct: host or cells: SH-EP1
# Assay remarks: Calcium flux functional assay, inhibition of nicotine response in SH-EP1-human α4β2 cells
# Assay type: cell-based
# Test parameters: 29C/HS (29° C.-treated SH-EP1-human α4β2 cells), nicotine 1 μM; read-out: Human α4β2 Ca Flux Imax [29C/HS]
Consider the following molecules and their measured Emax readings.
Just the number in %, nothing appended.

Data request: Give recorded Emax with human α4β2 (Homo sapiens, UniProt P17787+P43681) for the following molecule: CN[C@@]1(C)[C@@H]2CC[C@@H](C2)C12CCC2 (racemic)
Data returned: 98

###

# Target under test: human α4β2 (Homo sapiens, UniProt P17787+P43681)
# Construct: host or cells: SH-EP1
# Assay remarks: Calcium flux functional assay, inhibition of nicotine response in SH-EP1-human α4β2 cells
# Type: cell-based
# Test parameters: 29C/HS (29° C.-treated SH-EP1-human α4β2 cells), nicotine 1 μM; read-out: Human α4β2 Ca Flux Imax [29C/HS]
Measured parameter: Emax (%)
Numbers only; they are read as %.

• CN(C)C1C2CCC(C2)C12CCC2 (stereo not shown) = 98

Data request: Quick one: Emax for CNC1C2CCC(C2)C12CCC2 (stereo not shown) ?
Data returned: 99

Data request: If you can, please state the reported Emax value of C1CN(C2C3CCC(C3)C23CCC3)C1 (stereo not shown) .
Data returned: 96

Data request: Reported Emax, molecule CNC1C2CCC(C2)C12CC2 (stereo not shown) : ____
Data returned: 97

Data request: Given the entry CNC1(C)C2CCC(C2)C12CCCC2 (stereo not shown) , report its measured Emax.
Data returned: 99

Data request: Param item = CN(C)C1C2(CCC2)[C@H]2CC[C@]1(C)C2(C)C (stereo partly shown) [drawing 35] ; retrieve measured Emax.
Data returned: 96

Data request: Reported Emax for CNC1C2(CCC2)[C@@H]2CC[C@@]1(C)C2(C)C (stereo partly shown) [drawing 33] : what is it?
Data returned: 97

###

# Target under test: human α4β2 (Homo sapiens, UniProt P17787+P43681)
# Construct: host or cells: SH-EP1
# Assay remarks: Calcium flux functional assay, inhibition of nicotine response in SH-EP1-human α4β2 cells
# Assay type: cell-based
# Test parameters: 37C/LS, nicotine 1 μM; read-out: Human α4β2 Ca Flux Imax [37C/LS]
Measured parameter: Emax (%)
Just the number in %, nothing appended.

Example cases with answers are listed next.
* C1CN(C2C3CCC(C3)C23CCC3)C1 (stereo not shown) | 98
* CN(C)C1C2(CCC2)[C@H]2CC[C@]1(C)C2(C)C (stereo partly shown) [drawing 35] | 97
* CNC1(C)C2CCC(C2)C12CCCC2 (stereo not shown) | 100

Data request: Quick check: Emax on human α4β2 (Homo sapiens, UniProt P17787+P43681), item CN(C)C1C2CCC(C2)C12CCC2 (stereo not shown) ?
Data returned: 98

Data request: Provide the documented Emax with human α4β2 (Homo sapiens, UniProt P17787+P43681) as the system for CNC1(C)C2CCC(CC2)C12CCCC2 (stereo not shown)
Data returned: 95

###

# Target under test: human α4β2 (Homo sapiens, UniProt P17787+P43681)
# Construct: host or cells: SH-EP1
# Assay remarks: Competition binding to human α4β2 nicotinic receptors in membrane preparations ([3H]-nicotine)
# Test parameters: Human α4β2 Ki, [3H]-nicotine competition, membranes
Measured parameter: pKi
The scale used: pKi is minus the common logarithm of the concentration in molar units.

Data request: Can you share its pKi? I mean this compound: CNC1C2CCC(C2)C12CC2 (centres unmarked)
Data returned: 6.27

###

# Target under test: Human Ganglion (Homo sapiens, UniProt P30926+P32297)
# Construct: Human Ganglion Ca Flux IC50; Human Ganglion Ca Flux Imax
# Assay remarks: Calcium flux functional assay, inhibition of nicotine response at human ganglionic receptor subtype
# Assay type: cell-based
# Test parameters: read-out: Human Ganglion Ca Flux Imax
Measured parameter: Emax (%)
Record the value in %, omitting the unit from your answer.

Recorded Emax, per entry:
• CNC1(C)C2CCC(C2)C12CC2 (stereo not shown) = 98
• CNC1(C)C2CCC(C2)C12CCCC2 (stereo not shown) = 96
• CNC1C2(CCC2)[C@@H]2CC[C@@]1(C)C2(C)C (stereo partly shown) [drawing 33] = 95
• CNC1C2CCC(C2)C12CCC2 (stereo not shown) = 97
• CN(C)C1C2CCC(C2)C12CCC2 (stereo not shown) = 98

Data request: # Emax lookup, item CN(C)C1C2(CCC2)[C@H]2CC[C@]1(C)C2(C)C (stereo partly shown) [drawing 35]
Data returned: 98

Data request: Query: Emax; subject: CNC1C2CCC(C2)C12CC2 (stereo not shown)
Data returned: 93

Data request: Record request: Emax value, item CNC1(C)C2CCC(CC2)C12CCCC2 (stereo not shown)
Data returned: 92

Data request: Any idea what its Emax is? The compound is CN[C@@]1(C)[C@@H]2CC[C@@H](C2)C12CCC2 (racemic)
Data returned: 93

Data request: Could you share which Emax value was measured for CN(C)C1C2(CCC2)[C@@H]2CC[C@@]1(C)C2(C)C (stereo partly shown) [drawing 37] ?
Data returned: 95
